Below is a list of entries, each paired with its recorded fold change of Cadaverine concentration value.
Tested on: Klebsiella aerogenes DSM 30053
Assay notes: fold change of Cadaverine concentration vs plate DMSO controls (fold change (ratio)); higher = more amine produced, active = hit call of the paper (significant change in both replicates, either direction)
Experimental conditions: incubation time: 27 h, anaerobic, 37 °C
Counter-ions that a name gives are not always drawn.
Keep the answer to the number alone.

Please review the entries below; each comes with its answer.
# Molecule, Target or test system, Measurement name, Numeric readout
records = [
    ("O=C(CCCN1CC=C(n2c(=O)[nH]c3ccccc32)CC1)c1ccc(F)cc1 [Droperidol] (20 µM)", "Klebsiella aerogenes DSM 30053", "fold change of Cadaverine concentration", 1),
    ("CN/C(=N\\CCSCc1nc[nH]c1C)NC#N [Cimetidine] (20 µM)", "Klebsiella aerogenes DSM 30053", "fold change of Cadaverine concentration", 1.01),
    ("COc1ccc(C(=O)c2ccccc2O)c(O)c1 [Dioxybenzone] (20 µM)", "Klebsiella aerogenes DSM 30053", "fold change of Cadaverine concentration", 0.996),
    ("CC1c2cccc(O)c2C(O)=C2C(=O)C3(O)C(O)=C(C(N)=O)C(=O)C(N(C)C)C3C(O)C21 (stereo not drawn) [Doxycycline hydrochloride] (20 µM)", "Klebsiella aerogenes DSM 30053", "fold change of Cadaverine concentration", 0.724),
    ("CN(C)CCC=C1c2ccccc2C=Cc2ccccc21 [Cyclobenzaprine hydrochloride] (20 µM)", "Klebsiella aerogenes DSM 30053", "fold change of Cadaverine concentration", 0.985),
    ("Cc1ccc2c(Cl)cc(Cl)c(O)c2n1 [Chlorquinaldol] (20 µM)", "Klebsiella aerogenes DSM 30053", "fold change of Cadaverine concentration", 0.978),
    ("Cc1ccc2c(c1)c1c3n2CCNC3CCC1 (stereo not drawn) [Pirlindole mesylate] (20 µM)", "Klebsiella aerogenes DSM 30053", "fold change of Cadaverine concentration", 1),
]

Turning now to a further molecule:
Incoming: GET /values?readout=fold change of Cadaverine concentration&item= COc1ccccc1N1CCN(CCCCNC(=O)c2ccc3ccccc3c2)CC1 (20 µM)
Outgoing: 1.02
